Overview of reported pIC50 across a group of compounds:
- TARGET: EP2 receptor (Homo sapiens)
- Sequence (P43116 whole entry): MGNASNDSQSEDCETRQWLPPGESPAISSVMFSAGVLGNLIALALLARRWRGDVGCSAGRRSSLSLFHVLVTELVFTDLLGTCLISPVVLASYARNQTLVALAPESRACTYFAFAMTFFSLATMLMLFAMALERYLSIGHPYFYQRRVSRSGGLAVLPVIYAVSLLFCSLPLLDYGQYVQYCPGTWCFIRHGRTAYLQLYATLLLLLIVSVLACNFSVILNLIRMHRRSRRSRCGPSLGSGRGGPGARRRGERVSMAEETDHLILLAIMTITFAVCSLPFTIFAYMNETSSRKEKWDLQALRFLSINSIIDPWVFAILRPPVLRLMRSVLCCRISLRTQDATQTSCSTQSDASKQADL
- MEASUREMENT_NOTES: EP2 potency assay (cAMP TR-FRET, LANCE Ultra cAMP kit, antagonism of prostaglandin E2 at EC80)
- EXPERIMENTAL_SETUP: CHO-K1 cells transfected with EP2 receptor
pIC50: −log10 of the molar value.

Would you please look over these solved cases?
{"columns": ["COMPOUND", "pIC50"],
 "data": [
  ["CONC(=O)C1(COc2ccc(-c3ccc(C#N)cc3)cc2)CCN(C(=O)c2ccc(OC)cc2)C1 (stereo not shown) [Compound 4-23]", "< 5.30"],
  ["COc1ccc(C(=O)N2CCC(COc3ccc(-c4ccc(C#N)cc4)cc3)(C(=O)NS(=O)(=O)C3CC3)C2)cc1 (stereo not shown) [Compound 4-30]", "5.30 to 6.00"],
  ["COc1ccc(C(=O)N2CCC(COc3ccc(-c4ccc(C#N)cc4)cc3)(C(=O)NS(=O)(=O)C(C)C)C2)cc1 (stereo not shown) [Compound 4-28]", "6.00 to 6.30"]
]}

We next turn to a different compound, shown below.
// query Give the reported pIC50 for COc1ccc(C(=O)N2CCC(COc3ccc(-c4ccc(C#N)cc4)cc3)(C(=O)NS(C)(=O)=O)C2)cc1 (stereo not shown) [Compound 4-19] (system: EP2 receptor (Homo sapiens)).
// result > 7.00
